The reported measurements were obtained from PubChem BioAssay AID179.

# Test system: CEM cells HIV-1 protection, formazan growth assay
# measurementDescription: NCI AIDS Antiviral Assay
attributeMeasured: EC50

INSERT INTO measurements (compoundstring, measuredtarget, testvalue) VALUES
  ('Nc1c2nc(Nc3ccccc3)sc2nc(=S)n1-c1ccc([N+](=O)[O-])cc1', 'CEM cells HIV-1 protection, formazan growth assay', '> 50.1 µM'),
  ('O=Nc1sc(=S)n(N2CCCCC2)c1O', 'CEM cells HIV-1 protection, formazan growth assay', '> 200 µM'),
  ('CCOC(=O)c1nc(SC)sc1NC(=O)c1ccccc1Cl', 'CEM cells HIV-1 protection, formazan growth assay', '> 200 µM'),
  ('O=C(NNc1nc2ccc(Cl)cc2s1)c1cnc2n(c1=O)CCS2', 'CEM cells HIV-1 protection, formazan growth assay', '> 200 µM'),
  ('N#Cc1c(=O)[nH]c(=O)n2c1[nH]c1ccccc12', 'CEM cells HIV-1 protection, formazan growth assay', '> 200 µM'),
  ('COc1c(C)c(C/C=C(\C)CC/C=C(\C)CCC=C(C)C)c(OC)c(OC)c1OC', 'CEM cells HIV-1 protection, formazan growth assay', '> 200 µM');

**Query** Item O=C1C(Cl)=C(c2ccc(Cl)s2)C(=O)c2ccccc21 has what recorded EC50?
**Result** > 42.7 µM

**Query** Item COc1ccc(/C=C2/SC(=Nc3ccccc3)N(NC(=O)Cc3ccccc3)C2=O)c(OC)c1 has what recorded EC50?
**Result** > 75.9 µM

**Query** Item Cc1cc(S(=O)(=O)NC2=NCC(C)(C)CN2)c(S)cc1Cl has what recorded EC50?
**Result** > 200 µM

**Query** Item C/C(=C\c1ccc(N(C)C)cc1)C(=O)O has what recorded EC50?
**Result** > 66.1 µM

**Query** Item CO/C(=N\N=C\c1ccc(C(F)(F)F)cc1)c1ccncc1 has what recorded EC50?
**Result** > 117 µM
